# TARGET SYSTEM: HEK cells stably transfected with tetracycline inducible hNR1 and hNR2A (Homo sapiens, UniProt Q05586+Q12879)
# Construct: expressed in transfected cells; host or cells: HEK cells, stably transfected, tetracycline/doxycycline inducible
# Sequence (Q12879 23-1464, other chains not shown): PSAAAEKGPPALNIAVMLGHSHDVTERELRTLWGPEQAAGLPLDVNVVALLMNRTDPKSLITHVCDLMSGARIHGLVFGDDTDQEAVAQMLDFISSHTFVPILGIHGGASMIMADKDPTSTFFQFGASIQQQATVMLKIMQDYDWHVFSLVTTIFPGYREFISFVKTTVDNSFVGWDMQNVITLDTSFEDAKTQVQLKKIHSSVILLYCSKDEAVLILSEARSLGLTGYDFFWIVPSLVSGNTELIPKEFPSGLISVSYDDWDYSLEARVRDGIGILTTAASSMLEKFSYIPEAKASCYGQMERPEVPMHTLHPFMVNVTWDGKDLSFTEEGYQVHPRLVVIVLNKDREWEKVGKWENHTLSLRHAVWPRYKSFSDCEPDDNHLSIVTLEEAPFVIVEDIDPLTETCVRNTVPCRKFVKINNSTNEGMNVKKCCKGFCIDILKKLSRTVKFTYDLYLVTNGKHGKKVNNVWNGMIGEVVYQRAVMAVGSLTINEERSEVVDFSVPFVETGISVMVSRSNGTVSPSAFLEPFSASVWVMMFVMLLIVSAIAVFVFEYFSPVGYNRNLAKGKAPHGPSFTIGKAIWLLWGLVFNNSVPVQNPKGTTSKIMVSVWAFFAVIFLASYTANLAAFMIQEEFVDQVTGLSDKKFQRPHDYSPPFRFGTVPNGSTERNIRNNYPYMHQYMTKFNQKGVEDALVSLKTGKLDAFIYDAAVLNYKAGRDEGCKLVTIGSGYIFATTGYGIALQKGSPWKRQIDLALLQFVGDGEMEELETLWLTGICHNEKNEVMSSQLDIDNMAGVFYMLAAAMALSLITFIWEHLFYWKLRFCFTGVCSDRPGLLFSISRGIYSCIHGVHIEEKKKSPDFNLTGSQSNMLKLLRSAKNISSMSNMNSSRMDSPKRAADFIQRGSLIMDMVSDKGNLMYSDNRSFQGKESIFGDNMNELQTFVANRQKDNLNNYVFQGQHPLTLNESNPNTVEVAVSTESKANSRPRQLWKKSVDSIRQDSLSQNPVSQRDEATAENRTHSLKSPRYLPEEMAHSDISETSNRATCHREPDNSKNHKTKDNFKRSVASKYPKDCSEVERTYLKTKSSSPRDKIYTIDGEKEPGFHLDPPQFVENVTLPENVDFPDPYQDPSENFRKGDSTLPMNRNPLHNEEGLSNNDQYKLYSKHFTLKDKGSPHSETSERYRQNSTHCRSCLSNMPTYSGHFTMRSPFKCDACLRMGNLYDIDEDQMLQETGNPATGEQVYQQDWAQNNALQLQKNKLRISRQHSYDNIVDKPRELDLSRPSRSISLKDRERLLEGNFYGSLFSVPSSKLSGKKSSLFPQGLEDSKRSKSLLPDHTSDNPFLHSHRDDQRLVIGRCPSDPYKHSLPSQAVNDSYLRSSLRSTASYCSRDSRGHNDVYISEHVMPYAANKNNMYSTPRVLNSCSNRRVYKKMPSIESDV
# PROCEDURE TEXT: Assay 1: Cell-Based Assay, cytosolic calcium response to positive allosteric modulators (with 30 μM glycine and 300 nM L-glutamate, EC30)
# ASSAY CONTEXT: Table 3; cytosolic calcium response, with 30 μM glycine and 300 nM L-glutamate (EC30); — = no plateau was reached
pEC50: −log10 of the molar value.
PARAMETER: pEC50

I = CNC(=O)Cc1c(C(F)(F)F)sc2nc(Cn3nc(C4CC4)cc3C(F)(F)F)cc(=O)n12
II = Cc1sc2nc(Cn3nc(C(F)(F)F)cc3Cl)cc(=O)n2c1C1CC1C (single isomer, unassigned) [compound 154]
(Q) Hello, I am sorting some records. Could you say if I or II has the smaller pEC50 value? # reply format: chosen label
(A) I
(I: 4.84, II: 6.30)

1 = Cc1sc2nc(Cn3nc(C(F)(F)F)cc3Cl)cc(=O)n2c1[C@@H]1C[C@@H]1C#N (single isomer, unassigned)
2 = Cc1sc2nc(Cn3nc(C(F)(F)F)cc3Cl)cc(=O)n2c1-c1nccs1
(Q) Given the two records 1 and 2 , choose the one whose pEC50 value is lower. Refer to your chosen item by its label in the answer.
(A) 2

A = Cc1sc2nc(Cn3nncc3C3CC3)cc(=O)n2c1C1CC1CO (stereo not shown)
B = Cc1sc2nc(Cn3nc(C(F)(F)F)cc3Cl)cc(=O)n2c1C1CC1C#N (single isomer, unassigned) [compound 125]
C = O=c1cc(Cn2nc(Cl)cc2C(F)(F)F)nc2sc3c(n12)CCC3
(Q) Arrange the 3 molecules from largest to smallest pEC50. Write the labels out in the order the request specifies.
(A) B, C, A
(B: 7.56, C: 5.91, A: 4.13)

A = Cc1sc2nc(Cn3nc(Cl)cc3C(F)(F)F)cc(=O)n2c1C(C)CO (stereo not shown)
B = Cc1sc2nc(Cn3nc([N+](=O)[O-])cc3Cl)cc(=O)n2c1Br
C = Cc1sc2nc(Cn3nc(Cl)cc3C(F)(F)F)cc(=O)n2c1C(=O)NCC(F)(F)F
(Q) Place the items in sequence of falling pEC50. // rank by listing labels in the order requested
(A) B, C, A
